Each entry below carries its recorded MIC.
# System: Mycolicibacterium smegmatis
# assayProcedure: Antimycobacterial activity against Mycobacterium smegmatis […] assessed as inhibition of bacterial growth incubated for 48 hrs by spectrophotometer
# Format: functional
All answers are understood in µM, so give the number only.

May I ask what MIC has been recorded for COc1ncnc(Cn2cc(C(=O)NCCO)c3ncc(C)cc32)c1C ?
2.54

May I ask what MIC has been recorded for CCOc1ccc(CC(=O)Nc2cc(C)nn2-c2nc3c(c(=O)[nH]2)CCC3)cc1 ?
18.5

====

# Test system: Mycolicibacterium smegmatis
# assayProcedure: Antimycobacterial activity against Mycobacterium smegmatis […] assessed as inhibition of bacterial growth incubated for 48 hrs by spectrophotometer
# Assay type: functional
measuredQuantity: MIC

Record excerpt, results attached:
molecule	measuredOn	measured
Cc1nc2ccc(NC(=O)c3cc([N+](=O)[O-])cc([N+](=O)[O-])c3Cl)cc2s1	Mycolicibacterium smegmatis	> 50 µM
Cc1cc(NC(=O)c2ccc3ccccc3c2)n(-c2nc3c(c(=O)[nH]2)CCC3)n1	Mycolicibacterium smegmatis	> 50 µM

Next up:
May I ask what MIC has been recorded for CC(=O)N1N=C(c2c(O)n(-c3ccccc3C)c(=O)[nH]c2=O)CC1c1ccccc1 (stereo not drawn) ?
> 50 µM
